target: T1, recombinant human PD-1 expressed with a C-terminal myc-myc-hexahistidine tag (human); experiment: SPR (Biacore), mAb captured, hPD-1-MMH injected, 25 C;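 further: rate constants obtained by fitting sensorgrams to a 1:1 binding model, KD derived as kd/ka and half-life as ln2/(60·kd) in minutes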
T1 construct: also called hPD-1-MMH; human PD-1-MMH
T1 sequence (chain, as listed by the source limits assumed): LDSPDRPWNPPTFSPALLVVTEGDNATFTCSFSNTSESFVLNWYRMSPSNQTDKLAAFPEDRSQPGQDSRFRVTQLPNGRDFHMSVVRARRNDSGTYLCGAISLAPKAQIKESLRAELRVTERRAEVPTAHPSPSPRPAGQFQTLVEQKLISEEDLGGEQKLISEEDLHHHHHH
# koff per record follows
Value expressed in s⁻¹; do not type the unit.

binder	koff, s⁻¹
H1M7789N (antibody, mouse IgG1, V domains shown, Human variable domains, mouse IgG1 Fc (H1M prefix)) VH: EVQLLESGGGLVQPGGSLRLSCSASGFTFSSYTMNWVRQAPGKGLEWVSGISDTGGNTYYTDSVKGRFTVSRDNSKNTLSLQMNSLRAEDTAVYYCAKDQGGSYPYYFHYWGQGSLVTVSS VL: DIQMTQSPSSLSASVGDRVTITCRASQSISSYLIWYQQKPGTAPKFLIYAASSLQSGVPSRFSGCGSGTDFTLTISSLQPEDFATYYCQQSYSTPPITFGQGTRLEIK	5.31e-05
H1M7800N (antibody, mouse IgG1, V domains shown, Human variable domains, mouse IgG1 Fc) VH: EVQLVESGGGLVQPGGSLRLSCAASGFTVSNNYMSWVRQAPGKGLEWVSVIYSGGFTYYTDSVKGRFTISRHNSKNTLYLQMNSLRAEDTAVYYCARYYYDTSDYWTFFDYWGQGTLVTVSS VL: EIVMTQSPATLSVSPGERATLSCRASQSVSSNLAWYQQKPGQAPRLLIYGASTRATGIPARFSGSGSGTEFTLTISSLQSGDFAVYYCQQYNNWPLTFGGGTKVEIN	0.00947

Could you now consider this next binder?
Please report the recorded koff for H2aM7795N (antibody, mouse IgG2a, V domains shown, Human variable domains, mouse IgG2a Fc; also called H2M7795N) VH: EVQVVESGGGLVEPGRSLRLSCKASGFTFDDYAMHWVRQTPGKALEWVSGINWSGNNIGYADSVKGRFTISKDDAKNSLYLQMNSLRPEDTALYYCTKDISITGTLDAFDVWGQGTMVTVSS VL: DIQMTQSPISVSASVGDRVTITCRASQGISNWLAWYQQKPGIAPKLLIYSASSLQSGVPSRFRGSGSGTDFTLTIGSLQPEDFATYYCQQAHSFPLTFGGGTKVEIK . 0.00115
